The reported measurements were obtained from patent US12448363B2.

Assay: Plasma and total brain concentrations at 1 h post a single oral administration to female C57BL/6 mice
Assay type: in vivo
Details: mouse, 1 h post single oral 10 mg/kg, LC-MS/MS, read-out: Brain:plasma ratio
measured-parameter: Kp at 1 h

C=CC(=O)N1CCC=C(c2c(F)cc(C(N)=O)c3[nH]c(C)c(Cl)c23)C1 [Compound 1]: < 0.1
CC#CC(=O)N[C@H]1CCCN(c2c(F)cc(C(N)=O)c3[nH]c(C)c(C)c23)C1 [Branebrutinib, reference compound]: < 0.1
C=CC(=O)N1CCC[C@@H](n2nc(-c3ccc(Oc4ccccc4)cc3)c3c(N)ncnc32)C1 [Ibrutinib, reference compound]: < 0.1

[Q] Retrieve Kp at 1 h measured for CC#CC(=O)N[C@H]1C[C@H](F)CN(c2c(F)cc(C(N)=O)c3[nH]c(C)c(C)c23)C1 [Compound 35] and print it.
[A] < 0.1

[Q] Provide only the value of recorded Kp at 1 h for CC#CC(=O)N1CCCC2CN(c3c(F)cc(C(N)=O)c4[nH]c(C)c(Cl)c34)CC21 (stereo not shown) [Compound 40]
[A] > 0.5

[Q] Output measured Kp at 1 h for this item: C=CC(=O)N1CCc2c(-c3c(F)cc(C(N)=O)c4[nH]c(C)c(Cl)c34)cccc2C1C (racemic) [Compound 22a]
[A] 0.1 to 0.5

[Q] # return recorded Kp at 1 h for input C=CC(=O)N1CCC[C@@H](c2c(F)cc(C(N)=O)c3[nH]c(C)c(Cl)c23)C1 [Compound 2a]
[A] 0.1 to 0.5

[Q] Provide only the value of recorded Kp at 1 h for C=CC(=O)N1CCC[C@H](c2c(F)c(F)c(C(N)=O)c3[nH]c(C)c(F)c23)C1 [Compound 6a]
[A] 0.1 to 0.5

[Q] Return value of Kp at 1 h for input C=CC(=O)N1CCC[C@@H](c2c(F)c(F)c(C(N)=O)c3[nH]c(C)c(Cl)c23)C1 [Compound 16] , no commentary.
[A] 0.1 to 0.5

[Q] Look up and state reported Kp at 1 h for C=CC(=O)N1CCc2c(cccc2-c2c(F)cc(C(N)=O)c3[nH]c(C)c(Cl)c23)C1 (single isomer, unassigned) [Compound 20b]
[A] 0.1 to 0.5

[Q] Check the records and state Kp at 1 h for CC#CC(=O)N1CCC[C@H]1c1nc(-c2ccc(C(=O)Nc3ccccn3)cc2)c2c(N)nccn12 [Acalabrutinib, reference compound]
[A] < 0.1

[Q] Return Kp at 1 h for the following molecule: CC#CC(=O)N[C@H]1C[C@@H](F)CN(c2c(F)cc(C(N)=O)c3[nH]c(C)c(C)c23)C1 [Compound 33]
[A] < 0.1

[Q] Consider the molecule C=CC(=O)N1CCC2CCN(c3c(F)cc(C(N)=O)c4[nH]c(C)c(Cl)c34)CC21 (racemic) [Compound 29] . State its measured Kp at 1 h.
[A] 0.1 to 0.5

====

Biological target: BTK (Homo sapiens, UniProt Q06187)
Sequence (Q06187 whole entry): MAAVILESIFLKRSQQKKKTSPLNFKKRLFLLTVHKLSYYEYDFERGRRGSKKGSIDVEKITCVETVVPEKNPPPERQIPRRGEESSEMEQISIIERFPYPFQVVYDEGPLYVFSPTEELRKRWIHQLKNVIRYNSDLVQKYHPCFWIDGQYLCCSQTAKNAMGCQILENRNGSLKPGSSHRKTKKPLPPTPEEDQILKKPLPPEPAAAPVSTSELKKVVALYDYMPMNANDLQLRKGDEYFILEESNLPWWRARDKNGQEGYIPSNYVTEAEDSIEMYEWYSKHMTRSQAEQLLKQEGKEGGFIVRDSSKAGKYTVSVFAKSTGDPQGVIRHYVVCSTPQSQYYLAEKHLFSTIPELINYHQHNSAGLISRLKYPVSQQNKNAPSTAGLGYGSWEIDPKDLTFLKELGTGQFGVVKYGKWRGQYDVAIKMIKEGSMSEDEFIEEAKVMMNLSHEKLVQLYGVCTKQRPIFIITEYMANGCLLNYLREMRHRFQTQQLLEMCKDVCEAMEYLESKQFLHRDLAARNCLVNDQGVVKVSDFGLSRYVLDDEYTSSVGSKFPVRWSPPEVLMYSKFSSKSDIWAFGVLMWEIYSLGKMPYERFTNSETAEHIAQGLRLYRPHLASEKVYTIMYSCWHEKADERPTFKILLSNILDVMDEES
pIC50: −log10 of the molar value.
measured-parameter: pIC50

[Q] Identify measured pIC50 obtained with BTK (Homo sapiens, UniProt Q06187) for C=CC(=O)N1CCCc2c(cccc2-c2c(F)cc(C(N)=O)c3[nH]c(C)c(Cl)c23)C1 [Compound 25a] .
[A] 7.00 to 8.00

[Q] Determine reported pIC50 for C=CC(=O)N1CCc2c(cccc2-c2c(F)cc(C(N)=O)c3[nH]c(C)c(F)c23)C1 (atropisomer, axis not shown) [Compound 20e] ; test system: BTK (Homo sapiens, UniProt Q06187).
[A] > 8.00
